- System: SK-MEL-28
- experiment: NCI tumour cell line growth inhibition, 48 h
Calls of active or inactive are those of the source. Rule as the data show it: active = GI50 up to about 1.1 µM and inactive = higher.
measured.quantity: GI50

molecule	measured.quantity	data.value
O=C(/C=C/c1c(O)ccc2ccccc12)c1ccc([N+](=O)[O-])cc1	GI50	30.1 µM (inactive)
O=C1C=C(N2CCCC2)C=C(N2CCCC2)C1	GI50	> 100 µM (inactive)
O=C(O)C1OC(n2cc(F)c(=O)[nH]c2=O)CC1O (centres undefined)	GI50	53.1 µM (inactive)
CC(C)OC(=O)C1(C(C)C)CCc2ccc(C(=O)CCC(=O)O)cc21 (centres undefined)	GI50	> 100 µM (inactive)

---

Item-by-item account of GI50
- System: SK-MEL-28
- experiment: NCI tumour cell line growth inhibition, 48 h
Calls of active or inactive are those of the source. Cut-off read from the data, not from the text of the source: active = GI50 up to about 1.1 µM and inactive = higher.

molecule	target.or.test.system	GI50
Cc1ccc(C2=Nn3c(nc4sc5c(c4c3=O)CCCC5)SC2)cc1	SK-MEL-28	> 100 µM (inactive)
COc1cccc(C23CCCC(C2)N(C)CC3OC(=O)c2ccccc2)c1OC (stereo not drawn)	SK-MEL-28	28 µM (inactive)
COc1ccc(CC(=O)NCCc2ccc(OC)c(OC)c2)cc1Br	SK-MEL-28	> 100 µM (inactive)

---

- Test system: K562
- experiment: NCI tumour cell line growth inhibition, 48 h
Calls of active or inactive are those of the source. Cut-off read from the data, not from the text of the source: active = GI50 up to about 1.1 µM and inactive = higher.
Attribute: GI50
measured.quantity: GI50

compound	data.value
Cc1ccc(C)c(NC(=O)C(=O)C(C2C(C)CC(=O)C2CC(=O)O)[N+](=O)[O-])c1 (centres undefined)	> 100 µM (inactive)
Oc1ccccc1/C=N/Cc1ccco1	> 100 µM (inactive)
CCOC(=O)C(C(=O)OCC)C(NC(=O)Nc1cc(C(F)(F)F)ccc1OC)(C(F)(F)F)C(F)(F)F	24.2 µM (inactive)
CC(C)OC(=O)C1(C(C)C)CCc2ccc(C(=O)CCC(=O)O)cc21 (centres undefined)	> 100 µM (inactive)

---

- System: ACHN
- experiment: NCI tumour cell line growth inhibition, 48 h
The source made the active and inactive calls. No stated cut-off is given here; in the data, active = GI50 up to about 1.1 µM and inactive = higher.

compound	GI50
O=C(C(=O)c1cc(-c2ccccc2)nc2ccc3ccccc3c12)c1ccccc1	> 100 µM (inactive)
CCCCc1c2c(nc3c1CC/C(=C\c1ccc([N+](=O)[O-])cc1)C3=O)CCCC2	1.78 µM (inactive)
O=C1c2ccccc2C(C2c3ccccc3C(=O)c3cc(Br)ccc32)c2ccc(Br)cc21 (centres undefined)	> 100 µM (inactive)
O=C(CSC(=S)N1CCCCC1)Nc1nc2c(s1)CCCC2	50 µM (inactive)

---

Reported values of GI50 for individual entries
- System: OVCAR-8
- experiment: NCI tumour cell line growth inhibition, 48 h
The source made the active and inactive calls. Rule as the data show it: active = GI50 up to about 1.1 µM and inactive = higher.
measured.quantity: GI50

molecule	data.value
C[N+](C)=c1nc(N2CCOCC2)ss1	> 100 µM (inactive)
CO[C@H]1ON=C(c2c(C)cc(C)cc2C)[C@@H]1C1(c2ccccc2)ON=C(c2c(C)cc(C)cc2C)O1 (stereo partly drawn)	> 100 µM (inactive)
CC1(C)CC(=O)C2=C(C1)NC1=C(C2)C(=O)CC(C)(C)C1	> 100 µM (inactive)

---

- System: OVCAR-3
- experiment: NCI tumour cell line growth inhibition, 48 h
Calls of active or inactive are those of the source. Rule as the data show it: active = GI50 up to about 1.1 µM and inactive = higher.
Consider the following compounds and their measured GI50 readings.
measured.quantity: GI50

compound	data.value
COc1ccc(-c2oc3c(OC)c(OC)c(OC)c(OC)c3c(=O)c2OC)cc1OC [3,5,6,7,8,3',4'-HEPTAMETHOXYFLAVONE]	18.7 µM (inactive)
CN1CC2=C(N=C(S)NC2c2ccc(Cl)cc2)/C(=C/c2ccc(Cl)cc2)C1 (stereo not drawn)	15.3 µM (inactive)
CC(=O)OCCC[C@@H]1C(=C(C)C)CCC2[C@@]1(C)CC[C@@]1(C)C[C@](C)(CCC=C(C)C)CC[C@]21C (stereo partly drawn)	> 100 µM (inactive)
